Sourced from the supplement of paper PMC10338343

Would you mind telling me the reported pre-steady-state target cleavage rate of each entry?
- System: MILI (PIWIL2) piRISC loaded with L1MC piRNA (26 nt);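 also: 1 nM active piRISC with 0.1 nM target library at 33 °C single turnover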
- assay-method-text: pre-steady-state target cleavage rate (min^-1); guide: L1MC piRNA 5'p-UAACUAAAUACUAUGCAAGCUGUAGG; higher = faster piRNA-guided slicing of the target
- measurement-setup: auxiliary factor: 500 nM mouse GTSF1
Answers are plain numbers.

Consider the following items and state reported pre-steady-state target cleavage rate for each.
1. UCCUGGAUGAGCAUUGCAUAGUAUUUAGUUA
2. UCCUGCUACUGCUUGCAUAGUAUUUAGUUA
3. UCCUGGAACACGUUGCAUAGUAUUUUCAAA
4. UCCUGGAUCAGCUAGCAUAGUUUUUAGUUA

Solution:
0.212
0.234
0.0973
0.0366

Consider the following items and state reported pre-steady-state target cleavage rate for each.
1. UCCUGGAUGUCCUUGCAUAGUUUUUAGUUA
2. UCCUGGAUCUCCUUGCAUAGUAUUUAGUAA
3. UCCUGGUACAGCUUGCAUAGAAUUUUGUUA
4. UCCUGGAUGUCGUUGCAUAGUAUAUUGUUA
5. UCCUCCUACAGCAUGGAUAGUAUUUAGUUA
6. UCCUGGUAUCAGCUUGCAUAGUAUUUAGUUA

Solution:
1: 0.0125; 2: 0.203; 3: 0.0466; 4: 0.0458; 5: 0.269; 6: 0.252

---

- Tested on: EfPiwi piRISC loaded with L1MC piRNA (26 nt)
- assay-method-text: pre-steady-state target cleavage rate (min^-1); auxiliary factor: 500 nM Ephydatia muelleri Gtsf1; guide: L1MC piRNA 5'p-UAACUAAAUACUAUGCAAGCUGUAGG; higher = faster piRNA-guided slicing of the target
Would you mind telling me the reported pre-steady-state target cleavage rate of each entry?
Give bare numbers.

The examples below pair each entry with its known result.
1) UCCUCCUACAGCUUGCAUAGUAUUUAUGUUA    0.00546
2) UCCUCCUACAGGAUGCAUAGUAUUUAGAAA    0.00396
3) UCCUGCUACAGCUUGCAUAGUAUUUACUAA    0.0025
4) UCCUCCUACACCUUGCUUAGUAUUUAGUUA    0.00914
5) UCCUGGAACAGCUUGCAUAGUAUUUUGUUA    0.00368

Consider the following items and state reported pre-steady-state target cleavage rate for each.
1. UCCUGGAUCACCUUGCAUAGUAAUUAGUUA
2. UCCUGGAUGAGGUUGCAUAGUAAUUAGUUA

Solution:
1. 0.123
2. 0.00522

Consider the following items and state reported pre-steady-state target cleavage rate for each.
1. UCCUGGAUCAGCUUGCAUAGUAAUUAGUAA
2. UCCUCCUACAGCUUGGAAAGUAUUUAGUUA
3. UCCUGGAUGAGCUUGCAUAGUAUUUCGUUA
4. UCCUGGAUGAGCUUGUCAUAGUAUUUAGUUA
5. UCCUCCUCACAGCUUGCAUAGUAUUUAGUUA
6. UCCUGCUACAGCUUGCAUUGUAUUAAGUUA

Solution:
0.00487
0.0615
0.00352
0.00721
0.191
0.00572

---

- Test system: EfPiwi piRISC loaded with L1MC piRNA (26 nt)
- assay-method-text: pre-steady-state target cleavage rate (min^-1); auxiliary factor: 500 nM Ephydatia muelleri Gtsf1; guide: L1MC piRNA 5'p-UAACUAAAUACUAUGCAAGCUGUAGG; higher = faster piRNA-guided slicing of the target
Would you mind telling me the reported pre-steady-state target cleavage rate of each entry?
Numbers only.

The examples below pair each entry with its known result.
1) UCCUGCUACACCAUGCAUAGUAUUUAGUUA    0.00582
2) UCCUGGAUGUGCUUGCAUAGUAUUUAGUCA    0.00263
3) UCCUGCUACAGCUACCAUAGUAUUUAGUUA    0.00308
4) UCCUGCUACAGGUUGCAUAGUAAUUAGUUA    0.00595
5) UCCUGCUACAGCUUGCAUAGUUUUUAGUAA    0.00424

Consider the following items and state reported pre-steady-state target cleavage rate for each.
1. UCCUGGAUCAGCUUGCAUAGUAUUUAUUA
2. UCCUCCUACAGCUUGCAUAGUAAUUACAAA
3. UCCUCCUACAGCUAGCUUAGUAUUUAGUUA

Solution:
1. 0.0033
2. 0.00353
3. 0.00997

---

- Tested on: MILI (PIWIL2) piRISC loaded with piRNA #1 (26 nt);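 also: 1 nM active piRISC with 0.1 nM target library at 33 °C single turnover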
- assay-method-text: pre-steady-state target cleavage rate (min^-1); guide: piRNA #1 5'p-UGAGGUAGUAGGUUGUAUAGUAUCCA; higher = faster piRNA-guided slicing of the target
- measurement-setup: auxiliary factor: 500 nM mouse GTSF1
property-measured: pre-steady-state target cleavage rate

1) GGAGACGAAACUAUUCAACCUACUACCUCA    0.198
2) GGAGACCUAUGUAUCAACCUACUACCUCA    0.00951
3) GGAGACCUUACUACACAACCUACUACCUCA    0.126

Consider the following items and state reported pre-steady-state target cleavage rate for each.
1. GGAGACCUAUGAUAUGAACCUACUACCCCA
2. GGAGACCUAUGAAUACUACCUACAACCUCA
3. GGAGACCUAACUAUAGAACGUACUACCUCA
4. GGAGACCUAUCUAUACAACCUACAUACCUCA
5. GGAGUGGAUACUAAACAUCCUACUACCUCA
6. GGAGACCUAACUUUACAACCUACUACCUGA
7. GGAGACCUAUGAAUACAACCUACGACCUCA
8. GGAGACGAUACUAUACAACCUACUUCGUCA

Solution:
1. < 0.0001
2. 0.00497
3. 0.00603
4. 0.113
5. 0.242
6. 0.0891
7. 0.0047
8. 0.0101

Consider the following items and state reported pre-steady-state target cleavage rate for each.
1. GGAGACGAGACUAUACAACCUACUACCUCA
2. GGAGACGAUACUAUACAACGUACUACGUCA

Solution:
1. 0.214
2. 0.00557

---

Would you mind telling me the reported pre-steady-state target cleavage rate of each entry?
- System: MILI (PIWIL2) piRISC loaded with piRNA #1 (26 nt);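 also: 1 nM active piRISC with 0.1 nM target library at 33 °C single turnover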
- assay-method-text: pre-steady-state target cleavage rate (min^-1); guide: piRNA #1 5'p-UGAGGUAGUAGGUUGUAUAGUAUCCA; higher = faster piRNA-guided slicing of the target
- measurement-setup: auxiliary factor: 500 nM mouse GTSF1
One number for each entry.

The examples below pair each entry with its known result.
1. GGAGACGUUACUAUACAACCUACUACCUCA    0.186
2. GGAGACCAUACUAUACUACCUACUACCUGA    0.134
3. GGAGACCUUACAAUACAACCAACUACCUCA    0.00567
4. GGAGUGCAUACUAUACAACCUACUUCCUCA    0.00653
5. GGAGACCUAUGAAUAGAAGCUACUACCUCA    0.0046
6. GGAGUGGAUACUAUACAUCCUACUACCUCA    0.267
7. GGAGACCAUACUAUACAACUUACUACCUCA    0.0165
8. GGAGACCUAUGAAUACAACGUACAACCUCA    0.00489
9. GGAGACCUAUCUAUACAACUACUACCUCA    0.00292
10. GGAGACCUUACAAUACAUCCUACUACCUCA    0.232

Consider the following items and state reported pre-steady-state target cleavage rate for each.
1. GGAGACCUAUGAAUACAACUUACUACCUCA
2. GGAGACGAACUAUACAACCUACUACCUCA
3. GGAGACCUAACUAUACAAUCUACUACCUCA
4. GGAGACCUAUGAGUACAACCUACUACCUCA

Solution:
[0.00939, 0.138, 0.0713, 0.00674]

---

- Test system: MILI (PIWIL2) piRISC loaded with piRNA #1 (26 nt);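 also: 1 nM active piRISC with 0.1 nM target library at 33 °C single turnover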
- assay-method-text: pre-steady-state target cleavage rate (min^-1); guide: piRNA #1 5'p-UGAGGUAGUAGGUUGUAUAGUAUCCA; MIWI and MILI are mouse PIWI proteins and EfPiwi is from a freshwater sponge; tags in brackets are library labels; higher = faster piRNA-guided slicing of the target
- measurement-setup: auxiliary factor: 500 nM mouse GTSF1
Response field class: string, computed from recorded pre-steady-state target cleavage rate by ranges Low: < 0.06; Mid: ≥ 0.06 and < 0.1; High: ≥ 0.1

Illustrative cases are given below, each with its answer.
1) GGAGAGGAUACAAUACUACCUACUACCUCA    High
2) GGAGACCAUAGCUAUACAACCUACUACCUCA    High
3) GGAGACCUUUCUAUACAAGCUACUACCUCA    High
4) GGAGAGGAUACUAAACAACCUACUAGCUCA    Low
5) GGAGACCUAACUAUGACAACCUACUACCUCA    Low

Now look at this entry.
Problem: Please report the category associated with GGAGACGAUACAAUACAACCUACAACCUCA , nothing else.
Solution: High
